- Tested target: human TAS2R1 (Homo sapiens)
- Construct: expressed in transfected cells; host or cells: HEK293T-Gα16gust44
- Sequence (Q9NYW7 whole entry): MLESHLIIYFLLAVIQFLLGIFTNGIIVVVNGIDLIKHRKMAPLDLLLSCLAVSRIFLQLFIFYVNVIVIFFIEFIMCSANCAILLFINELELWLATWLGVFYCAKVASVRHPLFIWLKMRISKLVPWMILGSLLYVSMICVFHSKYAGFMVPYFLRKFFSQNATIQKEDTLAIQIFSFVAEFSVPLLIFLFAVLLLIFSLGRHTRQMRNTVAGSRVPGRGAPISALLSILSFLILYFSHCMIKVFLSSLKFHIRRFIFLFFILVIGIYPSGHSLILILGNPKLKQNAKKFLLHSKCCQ
- Experiment: Calcium imaging assay (FLIPR), HEK293T-Gα16gust44 cells transfected with human TAS2R1
- Assay type: cell-based
- Measurement setup: Time 92.796 s
For each of the molecules below, state its RLU.
I only need the number, in RLU, no unit after it.

Ask: Fill in the recorded RLU for this molecule, with human TAS2R1 (Homo sapiens) as test system: C[C@H](CCC(=O)O)[C@H]1CC[C@H]2[C@@H]3[C@H](O)C[C@@H]4C[C@H](O)CC[C@]4(C)[C@H]3CC[C@]12C [Chenodeoxycholic Acid, chenodeoxycholic acid]
Reply: 752.186

Ask: Fill in the recorded RLU for this molecule, with human TAS2R1 (Homo sapiens) as test system: C[C@H](CCC(=O)O)[C@H]1CC[C@H]2[C@@H]3CC[C@@H]4C[C@H](O)CC[C@]4(C)[C@H]3CC[C@]12C [Lithocholic Acid, lithocholic acid]
Reply: 891.158

Ask: Fill in the recorded RLU for this molecule, with human TAS2R1 (Homo sapiens) as test system: C[C@H](CCC(=O)O)[C@H]1CC[C@H]2[C@@H]3[C@@H](O)C[C@@H]4C[C@H](O)CC[C@]4(C)[C@H]3CC[C@]12C [Ursodeoxycholic Acid, ursodeoxycholic acid]
Reply: 490.474

Ask: Fill in the recorded RLU for this molecule, with human TAS2R1 (Homo sapiens) as test system: C[C@H](CCC(=O)O)[C@H]1CC[C@H]2[C@@H]3[C@H](O)C[C@@H]4C[C@H](O)CC[C@]4(C)[C@H]3C[C@H](O)[C@]12C [Cholic Acid, cholic acid]
Reply: 645.369

====

- Tested target: mouse Tas2r144 (Mus musculus)
- Construct: expressed in transfected cells; host or cells: HEK293T-Gα16gust44
- Sequence (Q7TQB8 whole entry): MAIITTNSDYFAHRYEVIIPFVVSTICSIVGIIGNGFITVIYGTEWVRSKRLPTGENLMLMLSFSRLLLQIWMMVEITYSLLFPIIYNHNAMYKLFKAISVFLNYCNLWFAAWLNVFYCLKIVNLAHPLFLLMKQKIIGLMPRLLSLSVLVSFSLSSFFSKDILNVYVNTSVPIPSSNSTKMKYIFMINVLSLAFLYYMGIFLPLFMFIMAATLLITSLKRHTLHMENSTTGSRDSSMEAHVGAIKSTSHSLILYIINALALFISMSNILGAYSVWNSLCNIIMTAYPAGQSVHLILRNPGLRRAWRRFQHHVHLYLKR
- Experiment: Calcium imaging assay (FLIPR), HEK293T-Gα16gust44 cells transfected with mouse Tas2r144
- Type: cell-based
- Measurement setup: Time 26.781 s
Measured quantity: RLU (RLU)
I only need the number, in RLU, no unit after it.

Ask: May I ask what RLU has been recorded for C[C@H](CCC(=O)NCC(=O)O)[C@H]1CC[C@H]2[C@@H]3[C@H](O)C[C@@H]4C[C@H](O)CC[C@]4(C)[C@H]3C[C@H](O)[C@]12C ?
Reply: 37.2224

Ask: May I ask what RLU has been recorded for C[C@H](CCC(=O)O)[C@H]1CC[C@H]2[C@@H]3[C@H](O)C[C@@H]4C[C@H](O)CC[C@]4(C)[C@H]3C[C@H](O)[C@]12C ?
Reply: 242.163

Ask: May I ask what RLU has been recorded for C[C@H](CCC(=O)NCCS(=O)(=O)O)[C@H]1CC[C@H]2[C@@H]3[C@H](O)C[C@@H]4C[C@H](O)CC[C@]4(C)[C@H]3C[C@H](O)[C@]12C ?
Reply: 75.1117

Ask: May I ask what RLU has been recorded for C[C@H](CCC(=O)NCCS(=O)(=O)O)[C@H]1CC[C@H]2[C@@H]3CC[C@@H]4C[C@H](O)CC[C@]4(C)[C@H]3CC[C@]12C ?
Reply: 1.348

====

- Tested target: human TAS2R1 (Homo sapiens)
- Construct: expressed in transfected cells; host or cells: HEK293T-Gα16gust44
- Experiment: Calcium imaging assay (FLIPR), HEK293T-Gα16gust44 cells transfected with human TAS2R1
- Format: cell-based
- Measurement setup: Time 28.781 s
Measured quantity: RLU (RLU)
I only need the number, in RLU, no unit after it.

Ask: May I ask what RLU has been recorded for C[C@H](CCC(=O)NCC(=O)O)[C@H]1CC[C@H]2[C@@H]3[C@H](O)C[C@@H]4C[C@H](O)CC[C@]4(C)[C@H]3C[C@H](O)[C@]12C ?
Reply: 184.074

Ask: May I ask what RLU has been recorded for C[C@H](CCC(=O)NCCS(=O)(=O)O)[C@H]1CC[C@H]2[C@@H]3[C@H](O)C[C@@H]4C[C@H](O)CC[C@]4(C)[C@H]3C[C@H](O)[C@]12C ?
Reply: 128.096

Ask: May I ask what RLU has been recorded for C[C@H](CCC(=O)O)[C@H]1CC[C@H]2[C@@H]3CC[C@@H]4C[C@H](O)CC[C@]4(C)[C@H]3C[C@H](O)[C@]12C ?
Reply: 115.435

Ask: May I ask what RLU has been recorded for C[C@H](CCC(=O)NCCS(=O)(=O)O)[C@H]1CC[C@H]2[C@@H]3CC[C@@H]4C[C@H](O)CC[C@]4(C)[C@H]3CC[C@]12C ?
Reply: 106.888
